Experimental target: c-Jun N-terminal kinase, JNK (Homo sapiens, UniProt P45983+P53779+P45984)
Assay remarks: Inhibition of PcJun phosphorylation in HepG2 cells
Format: functional, cell-based
Value kind: IC50

• CS(=O)(=O)c1ccc(CNC(=O)c2cc(N)c(C#N)c(NC(CO)CO)n2)cc1 = > 10 µM
• CC(=O)NCCNc1nc(C(=O)NCc2ccc(S(C)(=O)=O)cc2)cc(N)c1C#N = > 10 µM
• CS(=O)(=O)c1ccc(CNC(=O)c2cc(N)c(C#N)c(NCCNC(N)=O)n2)cc1 = > 10 µM

----------
Experimental target: Mitogen-activated protein kinase 8 (Homo sapiens)
Assay remarks: Inhibition of JNK1 by ATF2 phosphorylation assay
IC50 values, listed per item
Value kind: IC50 (nM)

- CS(=O)(=O)c1ccc(CNC(=O)c2cc(N)c(C#N)c(-c3ccc(C(=O)O)s3)n2)cc1: 250
- CS(=O)(=O)c1ccc(CNC(=O)c2cc(N)c(C#N)c(/C=C/c3ccccc3)n2)cc1: 1450
- CCOc1nc(C(=O)NCc2ccc(S(C)(=O)=O)cc2)cc(N)c1/C=C/C#N: 410
- CC(C)Oc1nc(C(=O)NCc2ccc(S(C)(=O)=O)cc2)cc(N)c1C#N: 15
- CC(=O)NCCNc1nc(C(=O)NCc2ccc(S(C)(=O)=O)cc2)cc(N)c1C#N: 59
- CS(=O)(=O)c1ccc(CNC(=O)c2cc(N)c(C#N)c(NCCC(N)=O)n2)cc1: 66

----------
Experimental target: Mitogen-activated protein kinase 8 (Homo sapiens, UniProt P45983)
Sequence (P45983 whole entry): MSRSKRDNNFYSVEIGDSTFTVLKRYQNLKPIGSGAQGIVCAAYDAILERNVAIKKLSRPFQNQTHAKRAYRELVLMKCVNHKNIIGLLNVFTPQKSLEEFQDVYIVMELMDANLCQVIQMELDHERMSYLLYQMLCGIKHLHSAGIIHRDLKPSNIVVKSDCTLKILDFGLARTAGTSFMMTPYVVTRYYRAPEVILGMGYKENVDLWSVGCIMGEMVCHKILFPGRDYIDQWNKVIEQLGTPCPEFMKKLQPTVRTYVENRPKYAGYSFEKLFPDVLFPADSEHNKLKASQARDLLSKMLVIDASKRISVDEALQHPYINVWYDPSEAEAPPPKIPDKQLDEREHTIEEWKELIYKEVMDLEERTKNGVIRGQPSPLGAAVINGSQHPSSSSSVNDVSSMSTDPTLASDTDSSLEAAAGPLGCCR
Assay remarks: Inhibition of JNK1 by ATF2 phosphorylation assay
pIC50: −log10 of the molar value.
Value kind: pIC50

- CS(=O)(=O)c1ccc(CNC(=O)c2cc(N)c(C#N)c(-c3cccc(S(C)(=O)=O)c3)n2)cc1: 7.37
- CCOc1nc(C(=O)NCc2ccc(S(C)(=O)=O)cc2)cc(N)c1C#CCO: 5.96
- C[C@H](CO)Nc1nc(C(=O)NCc2ccc(S(C)(=O)=O)cc2)cc(N)c1C#N: 6.74
- CS(=O)(=O)c1ccc(CNC(=O)c2cc(N)c(C#N)c(-c3cccc(O)c3)n2)cc1: 6.70
- CCCNC(=O)c1c(N)cc(C(=O)NCc2ccc(S(C)(=O)=O)cc2)nc1OCC: 5.28
- CS(=O)(=O)c1ccc(CNC(=O)c2cc(N)c(C#N)c(NCc3ccccc3)n2)cc1: 6.09
- CS(=O)(=O)c1ccc(CNC(=O)c2cc(N)c(C#N)c(-c3cccc(Cl)c3)n2)cc1: 5.93
- C#C/C=C/c1c(N)cc(C(=O)NCc2ccc(S(C)(=O)=O)cc2)nc1OCC: 7.10
- C#Cc1c(N)cc(C(=O)NCc2ccc(S(C)(=O)=O)cc2)nc1OCC: 6.46
- C=Cc1c(N)cc(C(=O)NCc2ccc(S(C)(=O)=O)cc2)nc1OCC: 5.93
- CS(=O)(=O)c1ccc(CNC(=O)c2cc(N)c(C#N)c(-c3ccsc3)n2)cc1: 7.09
- CCOc1nc(C(=O)NCc2ccc(S(C)(=O)=O)cc2)cc(N)c1C#CCCO: 5.65
- C/C=C/c1nc(C(=O)NCc2ccc(S(C)(=O)=O)cc2)cc(N)c1C#N: 7.32
- CS(=O)(=O)c1ccc(CNC(=O)c2cc(N)c(C#N)c(OCC3CCCC3)n2)cc1: 6.41
- CS(=O)(=O)c1ccc(CNC(=O)c2cc(N)c(C#N)c(/C=C/C(=O)O)n2)cc1: 6.52
- CS(=O)(=O)c1ccc(CNC(=O)c2cc(N)c(C#N)c(NCCN)n2)cc1: 5.80
- CCOc1nc(C(=O)NCc2ccc(S(C)(=O)=O)cc2)cc(N)c1/C=C/C(C)(C)C: 5.53

The measured values listed here are drawn from ChEMBL document CHEMBL1139733.
